- protocol description: Bmi1 luciferase reporter increase in mESCs, primary screen, esBAF inhibitor project, mouse ES cells, Bmi1 luciferase knock-in, single point (AID 602393);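 further: 0% = median of the plate's neutral control wells and 100% = double that signal; a rise in the Bmi1 reporter signal indicates esBAF inhibition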
- setup conditions: 24 h, at 12.5 µM, stronger effect = higher value, 100% = twice the neutral-well signal
In all, about 350,000 compounds went through this assay and about 7,000 (2%) were called active. The full list was thinned out, with actives kept by preference.
reported metric: reporter increase (%)
Report the figure in % without appending any unit label.

Exercise: Name the recorded reporter increase for CO[C@@H]1CN(C)C(=O)c2cc(NC(=O)c3ccccc3F)ccc2OC[C@H](C)NC[C@@H]1C .
Key: -0.986

Exercise: Same lookup for O=C(OCc1ccccc1F)c1ccc2c(c1)OCCO2 , please.
Key: 58.2

Exercise: Likewise for Cc1ccc(NC(=O)c2ccco2)cc1 ?
Key: 58.7

Exercise: Also, C[C@H](CO)N1C[C@H](C)[C@H](CN(C)Cc2ccc(C(F)(F)F)cc2)Oc2ccc(NC(=O)CCCCCC(=O)Nc3ccccc3N)cc2CC1=O please.
Key: -12.1

Exercise: Entry to check: Cc1cccc(-c2nc3ccc(C(=O)NCCN4CCN(C)CC4)cc3nc2-c2cccc(C)c2)c1
Key: -7.08

Exercise: Now this one: Oc1ccc(-c2cccc(-c3ccc(O)cc3)c2)cc1
Key: 57.6

Exercise: And what about the molecule COc1ccc(-n2cnc3cc(NCc4ccco4)ccc32)cc1 ?
Key: 56.7

Exercise: Try this molecule next: CC1CCN(C(NC(=O)c2ccco2)C(=O)c2ccccc2)CC1 (stereo unspecified)
Key: -0.711

Exercise: Next: O=C(Nc1ccc(Oc2ccccc2)cc1)c1ccco1
Key: 45.8

Exercise: And what about the molecule O=C(CN1CCN(c2ccc(O)cc2)CC1)Nc1ccc(-c2ccccc2)cc1 ?
Key: -6.35

Exercise: One more molecule: O=C(CN1CCN(c2ccccc2F)CC1)c1ccc2c(c1)OCO2
Key: 14.1

Exercise: What do you have for O=C(Nc1ccc(Sc2ccc(Br)cc2)cc1)c1ccco1 ?
Key: 30.7

Exercise: Same question for CCCNC(=O)[C@@H]1[C@@H](CO)[C@@H]2Cn3c(cccc3=O)[C@H]1N2C(=O)C1CCC1 please.
Key: 3.3

Exercise: And then O=C(COC(=O)c1ccc(O)cc1O)NC(=O)c1ccccc1 , what is it?
Key: -3.35

Exercise: Similarly, CC1CCN(c2ccc(-c3ccc(NC(=O)c4ccco4)cc3)nn2)CC1 ?
Key: 55.6

Exercise: Next: C[C@H](CO)N1C[C@H](C)[C@@H](CN(C)Cc2ccccn2)Oc2ncc(C3=CCCC3)cc2C1=O
Key: -4.21

Exercise: Okay, and C[C@@H]1CN([C@H](C)CO)C(=O)CCCn2cc(nn2)CO[C@@H]1CN(C)C(=O)c1ccc2ccn(C)c2c1 ?
Key: -1.71

Exercise: Check COc1cc(-n2c(C)nc3cc(C(=O)NCc4ccco4)ccc32)cc(OC)c1OC too.
Key: -1.78

Exercise: And then C(=N\Nc1ccc2ccccc2n1)/c1ccc2c(c1)OCO2 , what is it?
Key: -72.8

Exercise: Please give the result for O=C(COC(=O)c1ccc2c(c1)OCCO2)NCc1ccccc1Cl too.
Key: -1.54

Exercise: And CN1CCN(S(=O)(=O)c2ccc(NC(=O)c3ccco3)cc2)CC1 ?
Key: 7.27
